tested on: NCI-H522 lung; test: NCI-60 one-dose screen, 48 h (100 = growth as untreated, 0 = no growth, -100 = all killed); conditions: 10 µM unless noted
About 83,000 compounds went through this panel and 20% of them were active in at least one assay; those are over-represented in the sample as a whole.
Measured metric: growth (%)
Enter your answer as a number in %; do not include the unit.

Known growth results, listed for orientation:
CN1CCN(CCCOc2ccc3nc(Nc4cc(Cl)cc(Cl)c4)ccc3c2)CC1 -81.4
CCCCOc1ccc(NC(=O)n2nc(N=NN(C)C)c3ccc(Cl)cc32)cc1 90.1
Cc1ccc(C)c2c1C(=O)OC2=O 80.8
C[C@H]1[C@H]2C3=CC[C@@H]4[C@@]5(C)C/C(=C/c6ccncc6)C(=O)C(C)(C)[C@@H]5CC[C@@]4(C)[C@]3(C)CC[C@@]2(C(=O)N2CCN(C)CC2)CC[C@@H]1C 70

Given `CN(C)c1ccc(/C=C2\C=C(c3ccccc3)N(CCc3ccccc3)C2=O)cc1` , respond with its growth.
50.6

---

// values below are reported growth
tested on: SK-OV-3 ovarian; test: NCI-60 one-dose screen, 48 h (100 = growth as untreated, 0 = no growth, -100 = all killed); conditions: 10 µM unless noted
About 83,000 compounds went through this panel and 20% of them were active in at least one assay; those are over-represented in the sample as a whole. Active and inactive are the calls of the source. The calls were made as follows: active = growth percent below 10; inactive = the rest.

Known growth results, listed for orientation:
Compound	growth
CC1=NN(c2cccc(Cl)c2)C(=O)/C1=C\c1cn(CC(O)CN2CCCCC2)c2ccccc12 (centres undefined)	94.6% (inactive)
CCCCN(Cc1ccc(C(=O)NO)cc1)C(=O)Nc1ccc(OCCCCCCCCCn2cc(CCCCC(=O)N[C@H](C(=O)N3C[C@H](O)C[C@H]3C(=O)NCc3ccc(-c4scnc4C)cc3)C(C)(C)C)nn2)cc1	53.9% (inactive)
Cn1c(NCCc2ccc(O)c(O)c2)nc2c1c(=O)n(Cc1ccc(Cl)cc1)c(=O)n2C	82.3% (inactive)

Now examine the next entry.
Given `N[C@@H]1CCC[C@H]1NCCCCN1C(=O)c2cccc3cccc(c23)C1=O` , respond with its growth.
96.9% (inactive)

---

tested on: U251 CNS; test: NCI-60 one-dose screen, 48 h (100 = growth as untreated, 0 = no growth, -100 = all killed); details: 10 µM unless noted
Compounds without any hit were thinned out: in the full panel of roughly 83,000, 20% have a hit.
Measured metric: growth (%)
Enter your answer as a number in %; do not include the unit.

Known growth results, listed for orientation:
Compound	Measurement
COc1cc2nc(Nc3ccc(F)cc3)nc(N)c2cc1OC	94
Nc1c(C(=O)c2ccc(Cl)s2)sc2nc3c(cc12)CCCC3	97.8
CC(=O)NCC(=O)Nc1ccc(-c2nnc3ccccn23)nc1.CC(=O)NCC(=O)Nc1ccc(-c2nnc3ccccn23)nc1.[Pt+2]	99.4
COc1cc2oc(-c3cccc(C(=O)Nc4ccc(C)cc4)c3)cc(=O)c2c(OC)c1OC	42.1
O=[N+]([O-])c1ccc(-c2cc3c(Nc4ccc(OCc5cccc(Cl)c5)c(Cl)c4)ncnc3s2)cc1	52.8
COc1cc2c(cc1OC)-c1ccc3cc4c(cc3c1N(CCCN1CCCCC1)C2)OCO4	42.1

Given `CCc1nc2ccccc2[nH]1` , respond with its growth.
106

Given CN1C[C@@H](c2ccc(Cl)cc2)[C@]2(NC(=S)N(c3ccc(F)c(Cl)c3)C2=O)[C@@]12C(=O)NC1C=CC(Cl)=C[C@H]12 (some centres undefined) , respond with its growth.
59.9

Given CCCCCCN(CCCCCC)CC(O)c1cccc2ccc(Cl)cc12 (centres undefined) , respond with its growth.
55.2

Cited source for all entries: PubChem BioAssay (NCI)
